Target: Gamma-secretase (Homo sapiens) (UniProt Q96BI3+Q9NZ42+Q8WW43+P49768+Q92542+P49810)
Assay: Inhibition of gamma-secretase in HEK293 cells co-overexpressing NotchdeltaE assessed as inhibition of notch cleavage at 1 uM by luciferase reporter gene assay relative to DAPT
Assay type: cell-based
Conditions: values are per cent of control
Endpoint: residual activity (%)

* CCC(Cc1ccc(F)c(C(=O)NCc2ccc(C(F)(F)F)cc2)c1)C(=O)O (stereo not given) | 53.8
* CCC(Cc1ccc(OC)c(C(=O)NCc2ccc(C(F)(F)F)cc2)c1)C(=O)O (stereo not given) | 102
* CCC(Cc1ccc(F)c(C(=O)NCc2ccc(Oc3ccccc3)cc2)c1)C(=O)O (stereo not given) | 6.3
* CCC(Cc1ccc(OC)c(CNC(=O)c2ccc(C(F)(F)F)cc2)c1)C(=O)O (stereo not given) | 31.2
* CCC(Cc1ccc(F)c(C(=O)NCc2ccc(OC(F)(F)F)cc2)c1)C(=O)O (stereo not given) | 67.2

Data provenance is ChEMBL document CHEMBL1221235.
